TESTED SYSTEM: UniProt:Q9NWZ3
TEST NAME: IRAK4 Degradation HiBiT Assay
ASSAY CONDITIONS: Jurkat, read-out: Cellular IRAK4 HiBiT: Dmax, Table 5; multiple runs; HiBiT-tagged Jurkat cells, 4 hrs
The following molecules are listed with their measured Dmax values.
// note: answer is a bare numeric in %

For orientation, consider the following solved cases.
INSERT INTO measurements (molecule, value_reported) VALUES
  ('CNc1cc(-c2ccc3cc(C#N)cnn23)ncc1-c1nnc(N2CCN(C(=O)C3CCN(Cc4ccc5c(c4)C(=O)N(C4CCC(=O)NC4=O)C5=O)CC3)CC2)s1 (centres unmarked) [Example 86]', 105),
  ('CNc1cc(-c2ccc3cc(C#N)cnn23)ncc1-c1nnc([C@H]2CC[C@H](NC(=O)CN3CCC4(CC3)CN(c3ccc5c(c3)C(=O)N(C3CCC(=O)NC3=O)C5=O)C4)CC2)s1 (some centres unmarked) [Example 64]', 112),
  ('CC(C)Nc1cc(-c2ccc3cc(C#N)cnn23)ncc1-c1nnc(N2CCN(CC3CCN(c4ccc5c(=O)n(C6CCC(=O)NC6=O)ccc5c4)CC3)CC2)s1 (centres unmarked) [Example 72]', 94);

Fill in the blank: the reported Dmax of CNc1cc(-c2ccc3cc(C#N)cnn23)ncc1-c1nnc(N2CCN(CCC3CCN(c4ccc5c(c4)C(=O)N(C4CCC(=O)NC4=O)C5=O)CC3)CC2)s1 (centres unmarked) [Example 187] is ____. 95

Query CC(C)Nc1cc(-c2ccc3cc(C#N)cnn23)ncc1-c1nnc([C@H]2CC[C@H](NC(=O)CCOCCOCCNc3cccc4c3C(=O)N(C3CCC(=O)NC3=O)C4=O)CC2)s1 (some centres unmarked) [Example 3] next 90

----------
The following compounds are listed with their measured Dmax values.
TESTED SYSTEM: IRAK4 (Homo sapiens (Human))
Sequence (Q9NWZ3 whole entry): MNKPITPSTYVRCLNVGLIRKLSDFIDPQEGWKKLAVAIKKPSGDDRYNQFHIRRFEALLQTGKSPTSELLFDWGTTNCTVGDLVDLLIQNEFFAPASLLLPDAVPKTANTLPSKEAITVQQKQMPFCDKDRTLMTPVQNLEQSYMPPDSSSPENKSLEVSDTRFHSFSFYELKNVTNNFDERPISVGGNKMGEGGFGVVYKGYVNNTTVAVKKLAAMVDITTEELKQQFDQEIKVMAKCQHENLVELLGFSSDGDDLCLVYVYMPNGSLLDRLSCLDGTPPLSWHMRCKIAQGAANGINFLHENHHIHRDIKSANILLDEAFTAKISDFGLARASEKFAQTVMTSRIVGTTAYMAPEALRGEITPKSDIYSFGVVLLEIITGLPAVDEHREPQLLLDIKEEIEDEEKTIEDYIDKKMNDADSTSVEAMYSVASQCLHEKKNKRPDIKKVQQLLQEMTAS
TEST NAME: IRAK4 Degradation HiBiT Assay
ASSAY CONDITIONS: Jurkat, read-out: Cellular IRAK4 HiBiT: Dmax, Table 4; HiBiT-tagged Jurkat cells, 4 hrs
// note: answer is a bare numeric in %

INSERT INTO results (compound, value_reported) VALUES
  ('Cc1ncsc1-c1ccc(CNC(=O)[C@@H]2C[C@@H](O)CN2C(=O)[C@@H](NC(=O)C2(F)CC2)C(C)(C)C)c(OCCCCCC(=O)N2CCN(c3nnc(-c4cnc(-c5ccc6cc(C#N)cnn56)cc4NC(C)C)s3)CC2)c1', 104),
  ('Cc1ncsc1-c1ccc([C@H](C)NC(=O)[C@@H]2C[C@@H](O)CN2C(=O)[C@@H](NC(=O)CCCCCC(=O)N2CCN(c3nnc(-c4cnc(-c5ccc6cc(C#N)cnn56)cc4NC(C)C)s3)CC2)C(C)(C)C)cc1', 98);

Kindly consider the entry below.
Fill in the blank: the reported Dmax of CNc1cc(-c2ccc3cc(C#N)cnn23)ncc1-c1nnc([C@H]2CC[C@H](NC(=O)CCOCCNc3cccc4c3C(=O)N(C3CCC(=O)NC3=O)C4=O)CC2)s1 (stereo partly drawn) is ____. 93

----------
The following molecules are listed with their measured DC50 values.
TESTED SYSTEM: UniProt:Q9NWZ3
TEST NAME: IRAK4 Degradation HiBiT Assay
ASSAY CONDITIONS: read-out: Cellular IRAK4 HiBiT: DC50; Table 5; multiple runs; HiBiT-tagged Jurkat cells, 4 hrs

For orientation, consider the following solved cases.
INSERT INTO measurements (molecule, value_reported) VALUES
  ('Cc1ncsc1-c1ccc([C@H](C)NC(=O)[C@@H]2C[C@@H](O)CN2C(=O)[C@@H](NC(=O)CCC(=O)N2CCN(c3nnc(-c4cnc(-c5ccc6cc(C#N)cnn56)cc4NC(C)C)s3)CC2)C(C)(C)C)cc1', '419 nM'),
  ('CNc1cc(-c2ccc3cc(C#N)cnn23)ncc1-c1nnc(C2CCC(NC(=O)[C@H]3C[C@H]3C(=O)N[C@H](C(=O)N3C[C@H](O)C[C@H]3C(=O)N[C@@H](C)c3ccc(-c4scnc4C)cc3)C(C)(C)C)CC2)s1 (mixture of isomers)', '508 nM');

Kindly consider the entry below.
Look up DC50 with UniProt:Q9NWZ3 for this molecule: CNc1cc(-c2ccc3cc(C#N)cnn23)ncc1-c1nnc(N2CCN(C(=O)C[C@@H]3CCCN(c4cccc5c4C(=O)N(C4CCC(=O)NC4=O)C5=O)C3)CC2)s1 (stereo partly drawn) > 3330 nM
